Each recorded value in this set is attributed to IntAct's records for PubMed 11356864.

B1: Syndecan-2 (Rattus norvegicus (Rat)), P34900 (parent)
chain: MQRAWILLTLGLMACVSAETRAELTSDKDMYLDSSSIEEASGLYPIDDDDYSSASGSGAYEDKGSPDLTTSQLIPRISLTSAAPEVETMTLKTQSITPTQTESPEETDKKEFEISEAEEKQDPAVKSTDVYTEKHSDNLFKRTEVLAAVIAGGVIGFLFAIFLILLLVYRMRKKDEGSYDLGERKPSSAAYQKAPTKEFYA

variants of: B1; conditions: with nf1_human NF1, P21359
Sequence (P21359 whole entry): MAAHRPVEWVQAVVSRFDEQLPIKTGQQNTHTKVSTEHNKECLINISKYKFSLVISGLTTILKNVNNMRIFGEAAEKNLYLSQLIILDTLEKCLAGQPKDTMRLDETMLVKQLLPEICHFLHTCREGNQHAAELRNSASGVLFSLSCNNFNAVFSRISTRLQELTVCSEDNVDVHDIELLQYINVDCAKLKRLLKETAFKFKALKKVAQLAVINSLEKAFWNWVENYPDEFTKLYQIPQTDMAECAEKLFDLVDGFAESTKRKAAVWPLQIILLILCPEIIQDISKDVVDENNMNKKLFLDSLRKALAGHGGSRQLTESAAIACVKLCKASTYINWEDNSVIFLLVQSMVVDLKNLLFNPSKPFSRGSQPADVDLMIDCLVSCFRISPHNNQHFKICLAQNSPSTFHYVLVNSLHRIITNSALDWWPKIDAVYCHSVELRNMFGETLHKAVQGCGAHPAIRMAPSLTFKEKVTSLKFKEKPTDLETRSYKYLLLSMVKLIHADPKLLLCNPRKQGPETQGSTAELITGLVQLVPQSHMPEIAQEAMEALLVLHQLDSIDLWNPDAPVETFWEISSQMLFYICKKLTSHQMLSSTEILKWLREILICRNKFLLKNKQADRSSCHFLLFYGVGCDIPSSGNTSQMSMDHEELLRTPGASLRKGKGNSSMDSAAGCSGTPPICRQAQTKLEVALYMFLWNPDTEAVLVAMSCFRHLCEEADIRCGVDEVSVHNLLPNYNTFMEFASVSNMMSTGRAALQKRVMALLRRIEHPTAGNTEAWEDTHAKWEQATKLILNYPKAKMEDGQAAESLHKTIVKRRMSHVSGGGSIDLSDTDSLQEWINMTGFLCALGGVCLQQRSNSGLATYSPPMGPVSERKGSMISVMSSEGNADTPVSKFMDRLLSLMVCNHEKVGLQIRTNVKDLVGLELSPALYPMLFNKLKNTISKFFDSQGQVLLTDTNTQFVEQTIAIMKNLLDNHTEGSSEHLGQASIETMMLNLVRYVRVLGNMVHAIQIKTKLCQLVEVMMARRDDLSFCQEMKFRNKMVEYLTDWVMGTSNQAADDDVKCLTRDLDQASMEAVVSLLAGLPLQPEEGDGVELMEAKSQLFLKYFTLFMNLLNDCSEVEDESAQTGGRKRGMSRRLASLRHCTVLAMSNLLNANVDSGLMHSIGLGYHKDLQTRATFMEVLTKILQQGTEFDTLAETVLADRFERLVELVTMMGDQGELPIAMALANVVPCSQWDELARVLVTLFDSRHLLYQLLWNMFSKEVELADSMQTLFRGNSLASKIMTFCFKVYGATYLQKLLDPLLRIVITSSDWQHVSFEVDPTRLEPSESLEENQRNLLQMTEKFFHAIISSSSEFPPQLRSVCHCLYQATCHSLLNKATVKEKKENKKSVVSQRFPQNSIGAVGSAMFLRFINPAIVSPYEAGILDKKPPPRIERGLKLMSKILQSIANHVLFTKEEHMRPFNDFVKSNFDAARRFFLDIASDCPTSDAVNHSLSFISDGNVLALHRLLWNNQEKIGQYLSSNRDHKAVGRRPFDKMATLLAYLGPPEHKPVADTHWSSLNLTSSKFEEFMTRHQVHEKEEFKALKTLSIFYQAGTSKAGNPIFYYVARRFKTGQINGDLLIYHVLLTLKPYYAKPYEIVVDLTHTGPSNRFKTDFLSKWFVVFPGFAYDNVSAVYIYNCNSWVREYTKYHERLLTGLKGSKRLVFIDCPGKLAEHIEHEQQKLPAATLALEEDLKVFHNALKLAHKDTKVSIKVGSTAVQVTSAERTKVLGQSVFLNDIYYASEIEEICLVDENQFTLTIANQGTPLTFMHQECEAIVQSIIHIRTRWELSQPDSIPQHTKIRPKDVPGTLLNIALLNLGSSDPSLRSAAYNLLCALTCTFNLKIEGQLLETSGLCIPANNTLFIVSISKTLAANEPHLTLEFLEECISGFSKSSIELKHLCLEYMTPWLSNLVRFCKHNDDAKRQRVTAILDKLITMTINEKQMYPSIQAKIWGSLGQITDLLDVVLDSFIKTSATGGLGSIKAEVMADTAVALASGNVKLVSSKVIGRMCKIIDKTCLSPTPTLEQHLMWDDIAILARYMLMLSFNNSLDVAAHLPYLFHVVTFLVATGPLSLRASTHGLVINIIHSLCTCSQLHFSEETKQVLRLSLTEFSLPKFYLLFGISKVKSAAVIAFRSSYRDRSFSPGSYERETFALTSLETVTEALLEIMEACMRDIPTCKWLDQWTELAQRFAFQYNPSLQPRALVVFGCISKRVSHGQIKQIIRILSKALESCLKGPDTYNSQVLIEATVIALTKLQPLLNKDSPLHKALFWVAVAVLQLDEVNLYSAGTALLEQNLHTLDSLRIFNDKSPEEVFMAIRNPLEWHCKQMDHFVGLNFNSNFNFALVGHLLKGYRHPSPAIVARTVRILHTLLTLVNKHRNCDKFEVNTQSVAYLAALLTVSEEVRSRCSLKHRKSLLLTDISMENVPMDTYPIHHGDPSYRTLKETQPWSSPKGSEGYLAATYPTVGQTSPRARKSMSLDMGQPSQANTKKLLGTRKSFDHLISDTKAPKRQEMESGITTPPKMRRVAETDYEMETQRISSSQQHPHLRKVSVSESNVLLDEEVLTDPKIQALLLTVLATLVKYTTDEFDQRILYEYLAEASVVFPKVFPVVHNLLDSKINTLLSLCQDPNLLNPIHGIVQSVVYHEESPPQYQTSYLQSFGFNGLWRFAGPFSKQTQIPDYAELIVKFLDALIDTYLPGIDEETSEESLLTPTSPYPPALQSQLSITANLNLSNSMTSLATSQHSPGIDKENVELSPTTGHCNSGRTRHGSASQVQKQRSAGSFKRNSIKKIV
MEASURE: effect of a mutation on the interaction

[[record]]
mutation = "R172A;K173A"
reported_result = "decreasing interaction"

[[record]]
mutation = "K174A;D175A"
reported_result = "decreasing interaction"

[[record]]
mutation = "E176A;G177A"
reported_result = "decreasing interaction"

